Test system: HL-60
Experiment: In vitro antiproliferative activity (MTT), HL-60
Format: cell-based
Conditions: Homo sapiens, tumor cell proliferation, 72 h, mean ± SE
Would you mind telling me the reported pIC50 of each entry?
Answers are plain numbers, as −log10 of the molar value.

compound	quantity	recordedResult
COc1cc(-n2ccnc2-c2cc(C)c(OC)c(C)c2)cc(OC)c1OC [Compound 4h]	pIC50	5.46

Go through the items and report each one's pIC50.
1. COc1ccc(/C=C\c2cc(OC)c(OC)c(OC)c2)cc1O [CA-4, Combretastatin A-4, reference compound]
2. CCOc1ccc(-c2nccn2-c2cc(OC)c(OC)c(OC)c2)cc1F [Compound 4n]
3. COc1ccc(-c2nccn2-c2cc(OC)c(OC)c(OC)c2)cc1OC [Compound 4i]

1. 9.00
2. 8.46
3. 5.41

Data origin, for the record: paper PMC4877593
